Sourced from patent US8648105B2

biological target: AR (Homo sapiens); format: cell-based; set-up: Fold induction, AR response reporter; conditions: hormone refractory LNCaP-AR
experimental readout: inhibitory activity on AR response reporter

>  <molecule>
CN1C(=O)N(c2ccc(C#N)c(C(F)(F)F)c2)C(=O)C12CCC2 [NC25, reference compound]

>  <assay value>
no inhibitory activities

$$$$
>  <molecule>
CN1C(=S)N(c2ccc(C#N)c(C(F)(F)F)c2)C(=O)C12CCCC2 [NC26, reference compound]

>  <assay value>
no inhibitory activities

$$$$
>  <molecule>
CN1C(=O)N(c2ccc(C#N)c(C(F)(F)F)c2)C(=O)C12CCCC2 [NC27, reference compound]

>  <assay value>
no inhibitory activities

$$$$
>  <molecule>
N#Cc1ccc(N2C(=O)C3(CCCC3)NC2=S)cc1C(F)(F)F [NC28, reference compound]

>  <assay value>
no inhibitory activities

$$$$
>  <molecule>
CN1C(=S)N(c2ccc(C#N)c(C(F)(F)F)c2)C(=O)C12CCC2 [NC24, reference compound]

>  <assay value>
no inhibitory activities

$$$$

###

Biological target: AR (Homo sapiens, UniProt P10275)
Sequence (P10275 1-920): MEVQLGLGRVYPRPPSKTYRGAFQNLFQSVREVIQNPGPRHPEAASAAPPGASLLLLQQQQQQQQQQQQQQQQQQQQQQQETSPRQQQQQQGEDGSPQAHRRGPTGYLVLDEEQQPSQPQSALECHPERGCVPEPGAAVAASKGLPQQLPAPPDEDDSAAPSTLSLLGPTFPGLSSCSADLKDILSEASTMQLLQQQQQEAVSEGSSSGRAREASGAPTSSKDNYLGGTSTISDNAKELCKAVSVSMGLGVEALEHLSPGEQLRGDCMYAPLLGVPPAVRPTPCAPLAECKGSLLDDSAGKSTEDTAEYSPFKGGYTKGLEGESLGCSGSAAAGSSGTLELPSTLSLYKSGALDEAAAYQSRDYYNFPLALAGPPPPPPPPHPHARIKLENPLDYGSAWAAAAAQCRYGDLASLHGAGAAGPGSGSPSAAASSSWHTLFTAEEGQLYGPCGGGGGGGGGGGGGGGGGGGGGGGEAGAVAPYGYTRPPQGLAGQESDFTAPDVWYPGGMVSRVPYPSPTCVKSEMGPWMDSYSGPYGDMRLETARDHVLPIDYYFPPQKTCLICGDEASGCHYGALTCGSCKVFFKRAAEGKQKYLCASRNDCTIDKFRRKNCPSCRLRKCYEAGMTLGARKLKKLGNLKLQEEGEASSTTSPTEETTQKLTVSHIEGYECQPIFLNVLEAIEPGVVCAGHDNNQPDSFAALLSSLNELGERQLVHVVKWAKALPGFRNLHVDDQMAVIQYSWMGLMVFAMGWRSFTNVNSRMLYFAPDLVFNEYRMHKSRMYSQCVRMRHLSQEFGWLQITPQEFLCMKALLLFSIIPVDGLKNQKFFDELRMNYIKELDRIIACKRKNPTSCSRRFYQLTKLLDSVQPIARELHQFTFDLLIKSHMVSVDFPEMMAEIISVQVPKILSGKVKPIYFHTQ
Assay type: cell-based
Set-up: Fold induction, AR response reporter
Details: LN-AR, absence of R1881
experimental readout: agonistic activity on AR response reporter

>  <molecule>
CC1(C)C(=O)N(c2ccc(C#N)c(C(F)(F)F)c2)C(=S)N1CCCCO [Example 29, reference compound]

>  <assay value>
strongly activated AR

$$$$
>  <molecule>
CN1C(=S)N(c2ccc(C#N)c(C(F)(F)F)c2)C(=O)C12CCC2 [NC24, reference compound]

>  <assay value>
strongly activated AR

$$$$
>  <molecule>
CN1C(=O)N(c2ccc(C#N)c(C(F)(F)F)c2)C(=O)C12CCCC2 [NC27, reference compound]

>  <assay value>
strongly activated AR

$$$$
>  <molecule>
CN1C(=O)N(c2ccc(C#N)c(C(F)(F)F)c2)C(=O)C12CCC2 [NC25, reference compound]

>  <assay value>
strongly activated AR

$$$$
>  <molecule>
Cc1ccc(N2C(=S)N(c3ccc(C#N)c(C(F)(F)F)c3)C(=O)C23CCC3)cc1 [NC7]

>  <assay value>
no agonistic activity

$$$$
>  <molecule>
N#Cc1ccc(N2C(=O)C3(CCCC3)NC2=S)cc1C(F)(F)F [NC28, reference compound]

>  <assay value>
strongly activated AR

$$$$
>  <molecule>
Cc1ccc(N2C(=S)N(c3ccc(C#N)c(C(F)(F)F)c3)C(=NC(=S)Nc3ccccc3)C23CCC3)cc1 [NC35]

>  <assay value>
no agonistic activity

$$$$
>  <molecule>
CCNC(=S)N=C1N(c2ccc(C#N)c(C(F)(F)F)c2)C(=S)N(c2ccc(C)cc2)C1(C)C [NC34]

>  <assay value>
no agonistic activity

$$$$
>  <molecule>
CN1C(=S)N(c2ccc(C#N)c(C(F)(F)F)c2)C(=O)C12CCCC2 [NC26, reference compound]

>  <assay value>
strongly activated AR

$$$$
>  <molecule>
Cc1ccc(N2C(=S)N(c3ccc(C#N)c(C(F)(F)F)c3)C(=NC(=S)Nc3ccc(C#N)c(C(F)(F)F)c3)C23CCC3)cc1 [NC36]

>  <assay value>
no agonistic activity

$$$$
